method summary: Quantitative High-Throughput drug screen in 47 multiple myeloma cell lines against the NCATS MIPE library collection: NCIH929_DSMZ cell viability assay (AID 1918978); further: nearly all actives have a fitted effect of over 35% in size
details: NCI-H929 myeloma viability, CellTiter-Glo ATP, 48 h; series mostly up to 45.8 µM
Results filed as inconclusive are left out. Activity calls are given as the source filed them. The call rests on the fitted dose curve; in most records, active means well fitted cell-killing curve with a large enough effect; inconclusive means small, poorly fitted or top-dose-only effect; inactive means no such curve, though single readings can be large or run the other way.
Classes used: active, inactive

INSERT INTO assay_data (smiles_input, group) VALUES
  ('COc1ccc(OC)c(-c2nnc3ccc(-c4ccc(OC)c(O[C@@H]5CCOC5)c4)nn23)c1', 'active'),
  ('Cc1cc(CN2CCN(c3c(Br)cnc4nc(-c5ccc(N6CCN(C)CC6)cc5)[nH]c34)CC2)no1', 'active'),
  ('Cc1nc(Nc2n[nH]c3c2CN(C(=O)N[C@H](CN(C)C)c2ccccc2)C3(C)C)c2sccc2n1', 'active'),
  ('CC1=C(CO)C(=O)O[C@@H]([C@@H](C)[C@H]2CC[C@H]3[C@@H]4C[C@H]5O[C@]56[C@@H](O)C=CC(=O)[C@]6(C)[C@@H]4CC[C@]23C)C1', 'active'),
  ('CN1CC[C@@H](c2c(O)cc(O)c3c(=O)cc(-c4ccccc4Cl)oc23)[C@@H](O)C1', 'active'),
  ('CC(C)CC(=O)Nc1n[nH]c2c1CN(C(=O)C1CCN(C)CC1)C2(C)C', 'active'),
  ('Cc1c(NC(=O)OC[C@@H]2COCCN2)cn2ncnc(Nc3ccc4c(cnn4Cc4cccc(F)c4)c3)c12', 'active'),
  ('COc1cc2ncn(-c3cc(OCc4ccccc4C(F)(F)F)c(C(N)=O)s3)c2cc1OC', 'active'),
  ('Nc1cccc(-c2cc3c(Oc4cccc(O)c4)ncnc3[nH]2)c1', 'active'),
  ('CC[C@H]1CN2CCc3cc(OC)c(OC)cc3[C@H]2C[C@@H]1C[C@@H]1NCCc2cc(OC)c(OC)cc21', 'active'),
  ('Clc1ccc2ncc(-c3cccc(NC4CNC4)n3)n2c1', 'active'),
  ('Nc1nc(NCCNc2ncc(-n3ccnc3)c(-c3ccc(Cl)cc3Cl)n2)ccc1[N+](=O)[O-]', 'active'),
  ('Cc1cc(C(=O)N2CCN(c3cccc(Cl)c3)CC2)n(-c2ccccc2)n1', 'active'),
  ('CNC(=O)c1ccc(-c2cnc3ncc(Cc4ccc5ncccc5c4)n3n2)cc1F', 'inactive'),
  ('CN1CCN(c2ccc3nc(-c4c(N)c5c(F)cccc5[nH]c4=O)[nH]c3c2)CC1', 'active'),
  ('O=C(O)c1ccc2c(c1)nc(Nc1cccc(Cl)c1)c1ccncc12', 'active'),
  ('Cc1cnc(Nc2ccc(F)cc2Cl)nc1-c1c[nH]c(C(=O)N[C@H](CO)c2cccc(Cl)c2)c1', 'active'),
  ('CN1CCN(Cc2ccc(NC(=O)Nc3ccc(Oc4cc(NC(=O)C5CC5)ncn4)cc3)cc2C(F)(F)F)CC1', 'active');

====

Test system: Es-2
method summary: Primary qHTS to identify gynecologic anti-cancer compounds using libraries of approved drugs and bioactive compounds (AID 1345084); further: nearly all actives have a fitted effect of over 55% in size
details: Gynecologic cancer cell panel viability, ATPlite luminescence, 48 h; series mostly up to 57.5 µM
Inconclusive results are not listed. Active and inactive are the calls of the source. The call rests on the fitted dose curve; in most records, active means well fitted cell-killing curve with a large enough effect; inconclusive means small, poorly fitted or top-dose-only effect, or effect the other way; inactive means flat fitted curve, though single readings scatter.
Classes used: true for active, false for inactive

INSERT INTO assay_data (smiles_input, group) VALUES
  ('C=CC(=O)Nc1cccc(Oc2nc(Nc3ccc(N4CCN(C)CC4)cc3)ncc2Cl)c1', 'false'),
  ('COC(=O)c1ccc2c(C(=Nc3ccc(N(C)C(=O)CN4CCN(C)CC4)cc3)c3ccccc3)c(O)[nH]c2c1', 'false'),
  ('CC1(C)CCC(c2ccc(Cl)cc2)=C(CN2CCN(c3ccc(C(=O)NS(=O)(=O)c4ccc(N[C@H](CCN5CCOCC5)CSc5ccccc5)c(S(=O)(=O)C(F)(F)F)c4)cc3)CC2)C1', 'false'),
  ('CN(C)Cc1c(C(=O)NCCOc2ccc(C(=O)NO)cc2)oc2ccccc12', 'true'),
  ('CCNC(=O)Nc1ccc2ncc(Nc3ccc(C)cc3)nc2n1', 'false'),
  ('Cc1cc(N2CCOCC2)cc2[nH]c(-c3c(NC[C@@H](O)c4cccc(Cl)c4)cc[nH]c3=O)nc12', 'false'),
  ('O=C(Cc1ccc(-c2ccc(OCCN3CCOCC3)cc2)cn1)NCc1ccccc1', 'true'),
  ('C=CC(=O)N1CCC[C@@H](n2nc(-c3ccc(Oc4ccccc4)cc3)c3c(N)ncnc32)C1', 'false');

====

method summary: qHTS Screen of the MIPE 4.0 Collection Against Ewings Sarcoma (TC32) (AID 1259256); further: nearly all actives have a fitted effect of over 45% in size; further: potency means the concentration at half of the fitted maximal effect
details: TC32 Ewing sarcoma viability, CellTiter-Glo, 48 h; series mostly up to 45.8 µM
Description: There is a large unmet medical need for treatments for Ewing sarcoma, a pediatric sarcoma. […] Using the NCATS developed oncology compound library called the Mechanism of Interrogation Plate (MIPE), four Ewing sarcoma cell lines were evaluated (TC32, TC71, RDES, EW8). Compounds, in a 12-point titration series, were incubated with cells for 48 hours and the read out was cell viability (CellTiter-Glo from Promega). […]
Results filed as inconclusive are left out. Calls of active or inactive are those of the source. Calls come from the whole dose curve; as a rule, active = well fitted inhibition curve with a large enough effect; inconclusive = small, poorly fitted or top-dose-only effect; inactive = no such curve, though single readings can be large or run the other way.
endpoint: Potency

INSERT INTO results (smiles_input, recorded_result) VALUES
  ('CC[C@H]1CN2CCc3cc(OC)c(OC)cc3[C@H]2C[C@@H]1C[C@@H]1NCCc2cc(OC)c(OC)cc21', '0.0743 µM (active)'),
  ('Cc1nc(Nc2n[nH]c3c2CN(C(=O)N[C@H](CN(C)C)c2ccccc2)C3(C)C)c2sccc2n1', '7.43 µM (active)'),
  ('CN(C)c1nc(Cc2ccc(NC(=O)c3ccc4ccccc4c3)cc2)nc(Cl)c1CC(=O)O', 'inactive'),
  ('CC(C)(C)c1cc(C(C)(C)C)c(NC(=O)c2c[nH]c3ccccc3c2=O)cc1O', 'inactive'),
  ('COCCn1c2c([n+](Cc3cnccn3)c1C)C(=O)c1ccccc1C2=O', '0.0053 µM (active)');

====

method summary: Quantitative High-Throughput drug screen in 47 multiple myeloma cell lines against the NCATS MIPE library collection: MMM1_PLB cell viability assay (AID 1918976); further: nearly all actives have a fitted effect of over 35% in size
details: MMM1 myeloma cells viability, CellTiter-Glo, 48 h; series mostly up to 45.8 µM
Results filed as inconclusive are left out. Active and inactive are the calls of the source. Calls follow the shape of the dose curve; as a rule, active = well fitted cell-killing curve with a large enough effect; inconclusive = small, poorly fitted or top-dose-only effect, or effect the other way; inactive = no such curve, though single readings can be large or run the other way.
Classes used: T (active), F (inactive)

INSERT INTO assay_data (compound, group) VALUES
  ('CC(C)c1cnn2c(NCc3ccccc3)cc(N[C@@H](CO)[C@H](O)CO)nc12', 'T'),
  ('CC(C)c1noc(N2CCC(COc3ccc(-c4ccc(S(C)(=O)=O)cc4)nc3)CC2)n1', 'T'),
  ('O=C(NCCCNc1nc(Nc2cccc(NC(=O)N3CCCC3)c2)ncc1I)c1cccs1', 'T'),
  ('O=C(NCCS(=O)(=O)c1ccc(C(F)(F)F)cn1)c1ccc(Cl)cc1', 'F'),
  ('Nc1nccc(Oc2ccc(NC(=O)c3c[nH]cc(-c4ccc(F)cc4)c3=O)cc2F)c1Cl', 'T'),
  ('C=CCn1c(=O)c2cnc(Nc3ccc(N4CCN(C)CC4)cc3)nc2n1-c1cccc(C(C)(C)O)n1', 'F'),
  ('CCOC(=O)C1=C(C)NC2=C(C(=O)CC(C)(C)C2)C1c1ccc(-c2ccccc2)cc1 (configuration not stated)', 'T'),
  ('Cc1ccc(NC(=O)C2(c3ccc4c(c3)OC(F)(F)O4)CC2)nc1-c1cccc(C(=O)O)c1', 'T'),
  ('Cc1[nH]nc2ccc(-c3cncc(OC[C@@H](N)Cc4ccccc4)c3)cc12', 'T'),
  ('c1cc(-c2cnn3cc(-c4ccc(OCCN5CCCCC5)cc4)cnc23)ccn1', 'T'),
  ('Cn1c(=O)n(-c2ccc(C(C)(C)C#N)cc2)c2c3cc(-c4cnc5ccccc5c4)ccc3ncc21', 'T'),
  ('CN(C)Cc1c(C(=O)NCCOc2ccc(C(=O)NO)cc2)oc2ccccc12', 'T'),
  ('CC1(C)CCC(c2ccc(Cl)cc2)=C(CN2CCN(c3ccc(C(=O)NS(=O)(=O)c4ccc(N[C@H](CCN5CCOCC5)CSc5ccccc5)c(S(=O)(=O)C(F)(F)F)c4)cc3)CC2)C1', 'T'),
  ('CCN(CC)CCNC(=O)c1ccc2nc(-c3ccccc3)c(-c3ccc(CN4CCC(n5c(=O)[nH]c6ccccc65)CC4)cc3)nc2c1', 'T'),
  ('COc1cc(-c2nn(C3CCC(N4CCN(C(C)=O)CC4)CC3)c3ncnc(N)c23)ccc1NC(=O)c1cc2ccccc2n1C (configuration not stated)', 'T'),
  ('C=CC(=O)Nc1cccc(Oc2nc(Nc3ccc(N4CCN(C)CC4)cc3)ncc2Cl)c1', 'T'),
  ('COc1c(OCCCN2CCOCC2)ccc2c3n(c(=NC(=O)c4cnc(N)nc4)nc12)CCN3', 'T'),
  ('CC(C)(C)c1cnc(CSc2cnc(NC(=O)C3CCNCC3)s2)o1', 'T'),
  ('O=C(CCCCCCNC(=O)c1cnc(N(c2ccccc2)c2ccccc2)nc1)NO', 'T'),
  ('COC(=O)Nc1ccc(-c2nc(N3CCOCC3)c3cnn(C4CCN(Cc5cccnc5)CC4)c3n2)cc1', 'T'),
  ('CC(NCc1ccc2c(c1)nc(NC(=O)c1ccc(-c3cn[nH]c3)s1)n2CC(C)(C)O)C(C)(C)C (configuration not stated)', 'T'),
  ('CCn1nnc2c(N3CCOCC3)nc(-c3ccc(NC(=O)Nc4ccc(C(=O)N5CCN(C)CC5)cc4)cc3)nc21', 'T'),
  ('COc1ccc2c(OCc3nnc4ccc(-c5ccccc5)nn34)ccnc2c1', 'F'),
  ('COc1cc(=C2C=c3ccccc3=N2)[nH]c1=Cc1[nH]c(C)cc1C', 'T'),
  ('Cc1cc(Nc2cc(N3CCN(C)CC3)nc(Sc3ccc(NC(=O)C4CC4)cc3)n2)n[nH]1', 'T'),
  ('Cc1cc(C(=O)N2CCN(c3cccc(Cl)c3)CC2)n(-c2ccccc2)n1', 'T'),
  ('O=c1[nH]nc(Sc2ncc([N+](=O)[O-])s2)n1-c1ccc2c(c1)OCCO2', 'T');
